experimentalSystem: Cytochrome P450 2D6 (Homo sapiens) (UniProt P10635)
Sequence (P10635 whole entry, looked up): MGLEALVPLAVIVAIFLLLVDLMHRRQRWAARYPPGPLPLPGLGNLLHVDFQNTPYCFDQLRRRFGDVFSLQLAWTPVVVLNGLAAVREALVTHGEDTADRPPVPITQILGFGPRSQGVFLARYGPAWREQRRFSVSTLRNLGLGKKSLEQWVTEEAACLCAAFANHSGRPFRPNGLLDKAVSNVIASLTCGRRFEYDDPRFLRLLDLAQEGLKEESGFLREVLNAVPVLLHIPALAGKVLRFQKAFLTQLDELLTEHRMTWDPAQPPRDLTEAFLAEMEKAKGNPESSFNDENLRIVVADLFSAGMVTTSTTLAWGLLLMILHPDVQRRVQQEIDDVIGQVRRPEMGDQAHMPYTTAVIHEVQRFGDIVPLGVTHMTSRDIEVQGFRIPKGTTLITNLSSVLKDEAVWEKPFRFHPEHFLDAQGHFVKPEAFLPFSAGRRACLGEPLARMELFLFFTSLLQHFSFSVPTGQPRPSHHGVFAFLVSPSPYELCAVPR
protocolText: Cytochrome P450 Family 2 Subfamily D Member 6 (CYP2D6) small molecule antagonists: luciferase reporter qHTS assay (AID 1671196); further: nearly all actives have a fitted effect of over 50% in size
conditionDetails: P450-Glo CYP2D6 enzyme assay, luciferin luminescence, 1 h; series mostly up to 115 µM
Inconclusive results are not listed. Active and inactive are the calls of the source. The call rests on the fitted dose curve; in most records, active means well fitted inhibition curve with a large enough effect in the repeat runs; inconclusive means weak or mixed curves; inactive means no such curve, though single readings can be large or run the other way.
Outcomes: active, inactive

>>> print(df.to_string())
                                    molecule  assignedclass
 0    CN1CCN(CCCN2c3ccccc3Sc3ccc(Cl)cc32)CC1         active
 1                                  C=COCCCC       inactive
 2  O=C1OC(O)C(C(Cl)Cl)=C1Cl (configuration not stated)       inactive
 3                                   C1CCSC1       inactive
 4                            Clc1cccc(Cl)n1       inactive
 5                         CCOC(=O)OC(=O)OCC       inactive
 6                  CCOC=C(C(=O)OCC)C(=O)OCC       inactive
 7              c1ccc(-c2ccccc2-c2ccccc2)cc1       inactive
 8  CC(Cc1ccc(O)c(O)c1)C(C)Cc1ccc(O)c(O)c1 (configuration not stated)       inactive
 9  CN(C[C@@H](CC[N+]12CCC(C3CCCCC3)(CC1)CC2)c1ccc(Cl)c(Cl)c1)C(=O)c1cc(C(F)(F)F)cc(C(F)(F)F)c1         active
10             CC1(C)[C@H]2CC[C@]1(C)C(=O)C2       inactive
11  C/C(=C\c1ccc(C(=O)O)cc1)c1ccc2c(c1)C(C)(C)CCC2(C)C       inactive
12                                     CCSCC       inactive
13  c1ccc(-c2ccc(C(c3ccccc3)n3ccnc3)cc2)cc1 (configuration not stated)         active
14                             CC(=O)CC(N)=O       inactive
15                             O=C1CCC(=O)N1       inactive
16                        [Cl][Eu]([Cl])[Cl]       inactive
17              C/C=C/C(=O)C1=C(C)C=CCC1(C)C       inactive
18     CCCCCCCCc1ccc(Nc2ccc(CCCCCCCC)cc2)cc1       inactive
19  O=C(CCCCCCCCc1cccnc1)N1CCC(C=C(c2ccccc2)c2ccccc2)CC1       inactive
20                         Cc1ccc2n[nH]nc2c1       inactive
21             COC(=O)c1ccc([N+](=O)[O-])cc1       inactive
22             Nc1c(Br)cc([N+](=O)[O-])cc1Br       inactive
23                        Oc1cccc2c(O)cccc12         active
24                   O=C1CCC/C=C\CCCCCCCCCC1       inactive
25  C=C(C)C1CCC(C)CC1O (configuration not stated)       inactive
26                     CCc1c(C)cc(N)c(CC)c1N         active
27  CN(C)CCOc1ccc(/C(=C(/CCCl)c2ccccc2)c2ccccc2)cc1         active
28        Cc1ccc(N=Nc2c(O)ccc3ccccc23)c(C)c1         active
29  C=C1C(CCl)(CCl)C2(Cl)C(Cl)C(Cl)C1(Cl)C2(Cl)Cl (configuration not stated)         active
30                        Brc1cc(Br)cc(Br)c1       inactive
31  CC/C(=C(/c1ccc(O)cc1)c1ccc(OCCN(C)C)cc1)c1ccccc1         active
32                      CCN(CC)c1ccc(C=O)cc1       inactive
33                                 SC1CCCCC1       inactive
34                                 C=C(C)CCO       inactive
35               Nc1ccc(Cl)c([N+](=O)[O-])c1       inactive
36         O[Si](c1ccccc1)(c1ccccc1)c1ccccc1       inactive
37     CCCC(C)C=O (configuration not stated)       inactive
38  O=C(Nc1ccc([N+](=O)[O-])cc1)Nc1ccc([N+](=O)[O-])cc1 (tested in a mixture with another compound)       inactive
39                             c1ccc2occc2c1         active
40  C=CCc1cc(S(=O)(=O)c2ccc(O)c(CC=C)c2)ccc1O         active
41                       O=C1CCCCCCCCCCCCCC1       inactive

###

protocolText: qHTS assay for small molecule disruptors of the mitochondrial membrane potential (AID 720635)
conditionDetails: HepG2 mitochondrial membrane potential, Mito-MPS dye ratio; series mostly up to 83.2 µM
Records with an inconclusive call do not appear. Active and inactive are the calls of the source. The call rests on the fitted dose curve; in most records, active means well fitted inhibition curve with a large enough effect in the signal ratio in the repeat runs; inconclusive means weak or mixed curves, or effect the other way; inactive means flat fitted curve, though single readings scatter; the % refers to the signal ratio.
Possible outcomes: yes for active, no for inactive

                                    compound  assignedclass
 0  COC(=O)C(CN)c1c[nH]c2ccc(OC)cc12 (stereo unspecified)             no
 1  CO/N=C(\C(=O)N[C@@H]1C(=O)N2C(C(=O)[O-])=C(C[n+]3cccc4c3CCC4)CS[C@H]12)c1csc(N)n1             no
 2  COC(=O)[C@H]1[C@H]2C[C@H]3c4[nH]c5ccccc5c4CCN3C[C@H]2CC[C@@H]1O             no
 3                 CCOc1ccc([N+](=O)[O-])cc1            yes
 4          O=P(O)(O)C(O)(Cn1ccnc1)P(=O)(O)O             no
 5  C[C@H](Cc1ccc(O)c(O)c1)[C@@H](C)Cc1ccc(O)c(O)c1            yes
 6  Cc1cn([C@H]2C[C@H](O)[C@@H](CO)O2)c(=O)[nH]c1=O             no
 7  CC(CNC(=O)c1cccnc1)NC(=O)c1cccnc1 (stereo unspecified)             no
 8  CC(C)(O/N=C(\C(=O)N[C@@H]1C(=O)N2C(C(=O)[O-])=C(C[n+]3ccccc3)CS[C@H]12)c1csc(N)n1)C(=O)O             no
 9           Nc1c(CC(=O)O)cccc1C(=O)c1ccccc1             no
10  C=C1[C@H](CO)[C@@H](O)C[C@@H]1n1cnc2c(=O)[nH]c(N)nc21             no

###

protocolText: qHTS assay to identify small molecule antagonists of the constitutive androstane receptor (CAR) signaling pathway - cell viability counter screen (AID 1224837); further: nearly all actives have a fitted effect of over 45% in size
conditionDetails: HepG2-CYP2B6-hCAR viability, CellTiter-Fluor, 23 h, co-treated with 50 nM CITCO; series mostly up to 92.4 µM
Records with an inconclusive call do not appear. Calls of active or inactive are those of the source. Calls come from the whole dose curve; as a rule, active = well fitted cell-killing curve with a large enough effect in the repeat runs; inconclusive = weak or mixed curves, or effect the other way; inactive = flat fitted curve, though single readings scatter.
Labels: active, inactive

In [3]: df
Out[3]:
                                    molecule  assignedclass
 0                            CC(C)=NNC(N)=S       inactive
 1  CC1=C(/C=C/C(C)=C/C=C/C(C)=C\C(=O)O)C(C)(C)CCC1       inactive
 2  CC(C=O)c1ccccc1 (configuration not stated)       inactive
 3            O=C1c2ccccc2C(=O)c2c(Cl)cccc21       inactive
 4     CCCCCCCCc1ccc(Nc2ccc(CCCCCCCC)cc2)cc1       inactive
 5                   COc1c(Br)cc(Br)c(C)c1Br       inactive
 6         Clc1nc(C(Cl)(Cl)Cl)c(Cl)c(Cl)c1Cl       inactive
 7                                     CCSCC       inactive
 8     CCCCCN=C(N)N/N=C/c1c[nH]c2ccc(OC)cc12         active
 9                             CC/C=C(\C)C=O       inactive
10                      CCN(CC)c1ccc(C=O)cc1       inactive
11       CCC(O)CO (configuration not stated)       inactive
